B1: SEPHS2 (parent)
chain: KASGRFGLLQGTSAETSGGLLICL

- Variants of: B1
- protocol.summary: protein stability index of a GFP-peptide fusion (GPS, HEK-293T) (PSI 1-6); higher = more stable;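 further: lentivirally expressed fusions sorted by FACS into six bins by GFP to DsRed ratio, PSI derived from sequencing read proportions per bin multiplied by bin number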
- test.settings: c terminus: a fixed tail appended
Label class 1 when protein stability index is at or above 2; otherwise label class 0.

Reported protein stability index reaches at least 2 for L9P ? class 1

Reported protein stability index reaches at least 2 for G7Y ? class 1

Reported protein stability index reaches at least 2 for A14N ? class 1

Reported protein stability index reaches at least 2 for G18D ? class 1
